Origin of values: PubChem BioAssay AID330

- Test system: P388 leukemia ip, CD2F1 mice, survival T/C
- EXPERIMENT DESCRIPTION: NCI In Vivo Anticancer Drug Screen. Data for tumor model P388 Leukemia (intraperitoneal) in CD2F1 (CDF1) mice
- COND: endpoint: median survival time; dose: 25.0 mg/kg/injection; schedule: Q01DX005 (ip); vehicle: Klucel (hydroxypropylcellulose) (HPC); higher = longer survival
Toxic doses and inconclusive results are not listed.

- COMPOUND: "CC(C)c1ccc(C(Cc2ccccc2)N(CCO)CCO)cc1 (stereo unspecified)"
  T/C: "104 % of control"
- COMPOUND: "CN1N=C(C2=NN(C)C(=O)N(C)N2)NN(C)C1=O"
  T/C: "97 % of control"
- COMPOUND: "Cn1ccc2cc(C3CCCc4c3[nH]c3ccccc43)c(OCc3ccccc3)cc21 (stereo unspecified)"
  T/C: "97 % of control"
- COMPOUND: "CN=C(NC#N)NCCSCc1nc[nH]c1C"
  T/C: "102 % of control"
- COMPOUND: "CCOC(=O)C(C(=O)OCC)=C(N)C(Cl)(Cl)Cl"
  T/C: "116 % of control"
- COMPOUND: "O=c1[nH]cnc2nc(/N=N/SCCO)[nH]c12"
  T/C: "104 % of control"

---

T/C by entry:
- Test system: P388 leukemia ip, CD2F1 mice, survival T/C
- EXPERIMENT DESCRIPTION: NCI In Vivo Anticancer Drug Screen. Data for tumor model P388 Leukemia (intraperitoneal) in CD2F1 (CDF1) mice
- COND: endpoint: median survival time; dose: 400.0 mg/kg/injection; schedule: Q01DX009 (ip); vehicle: saline with Tween-80; higher = longer survival
Toxic doses and inconclusive results are not listed.

- MOLECULE: "N[C@H](Cc1c[nH]c2ccccc12)C(=O)O"
  T/C: "103 % of control"
- MOLECULE: "O=C1/C(=C/c2ccccc2)Cc2ccccc21"
  T/C: "95 % of control"
- MOLECULE: "CNC(C)=O"
  T/C: "95 % of control"
- MOLECULE: "O=C(NO)c1ccccc1O"
  T/C: "110 % of control"
- MOLECULE: "CCC12OCCN1CC(C)O2 (stereo unspecified)"
  T/C: "119 % of control"
- MOLECULE: "COC(=O)c1cc(C)cc(O)c1C"
  T/C: "101 % of control"

---

- Tested on: P388 leukemia ip, CD2F1 mice, survival T/C
- EXPERIMENT DESCRIPTION: NCI In Vivo Anticancer Drug Screen. Data for tumor model P388 Leukemia (intraperitoneal) in CD2F1 (CDF1) mice
- COND: endpoint: median survival time; dose: 100.0 mg/kg/injection; schedule: Q01DX009 (ip); vehicle: Klucel (hydroxypropylcellulose) (HPC); higher = longer survival
- Method: The antitumor activity of compounds was measured in mice bearing transplantable tumors. Survival or tumor size were measured and the results are expressed as the measurement made in the treated group (T) divided by the measurement made in the vehicle treated control group (C). The tumor model used in this assay is P388 Leukemia (intraperitoneal) in CD2F1 (CDF1) mice
Toxic doses and inconclusive results are not listed.
Reported T/C values follow for various molecules
PROPERTY MEASURED: T/C

- MOLECULE: "Nc1cccc(SC2CC(=O)N(c3ccc(Cl)cc3C(=O)c3ccccc3)C2=O)c1 (centres undefined)"
  VALUE: "99 % of control"
- MOLECULE: "O=C1CC2(CCCC2)C(=O)N1c1cccc2ccccc12"
  VALUE: "106 % of control"
- MOLECULE: "Cn1c(CO)cnc1-c1ccccc1"
  VALUE: "100 % of control"
- MOLECULE: "C#CCSc1nc2ccccc2s1"
  VALUE: "109 % of control"
- MOLECULE: "CC(C)(C)N=C(CCN1CCN(CCC(=NC(C)(C)C)Nc2c(Cl)cccc2Cl)CC1)Nc1c(Cl)cccc1Cl"
  VALUE: "95 % of control"
- MOLECULE: "CC(C)(C)C1(C#N)C(=O)N(c2ccc(Cl)cc2)C12c1ccccc1-c1ccccc12 (centres undefined)"
  VALUE: "118 % of control"
- MOLECULE: "N#CCCSc1nnc(SCCC#N)s1"
  VALUE: "101 % of control"
- MOLECULE: "N#CCCSc1nnc(N)s1"
  VALUE: "103 % of control"
- MOLECULE: "Cc1ncc(C)c2c([N+](=O)[O-])cccc12"
  VALUE: "110 % of control"
- MOLECULE: "Cc1nc2c(Br)cc(Br)cc2c(=O)n1CC(=O)NNC(N)=S"
  VALUE: "104 % of control"
- MOLECULE: "COc1ccc(CCN2C(=O)C(=O)N(c3cccc4c(N5C(=O)C(=O)N(CCc6ccc(OC)c(OC)c6)C5=O)cccc34)C2=O)cc1OC"
  VALUE: "93 % of control"
- MOLECULE: "Cn1c(N)c(C(=O)c2cccs2)c(=O)n(C)c1=O"
  VALUE: "88 % of control"
- MOLECULE: "CC(=O)N(CC(=O)Nc1ccc(S(N)(=O)=O)cc1)C(C)C"
  VALUE: "99 % of control"
- MOLECULE: "CCOC(=O)C1=C(C)O/C(=C/c2ccc(OC)cc2)C1=O"
  VALUE: "93 % of control"

---

- Tested on: P388 leukemia ip, CD2F1 mice, survival T/C
- EXPERIMENT DESCRIPTION: NCI In Vivo Anticancer Drug Screen. Data for tumor model P388 Leukemia (intraperitoneal) in CD2F1 (CDF1) mice
- COND: endpoint: median survival time; dose: 400.0 mg/kg/injection; schedule: Q04DX003 (ip); vehicle: saline with Tween-80; higher = longer survival
Toxic doses and inconclusive results are not listed.

- COMPOUND: "C[C@]12CC[C@H]3C(=CCc4cc(O)ccc43)[C@@H]1C/C(=N\\O)C2=O"
  T/C: "95 % of control"
- COMPOUND: "Clc1ccc(CSc2ncnc3nc[nH]c23)cc1"
  T/C: "109 % of control"
- COMPOUND: "O=C(O)CSc1ccc(NC(=O)NC2CCCCC2)cc1"
  T/C: "100 % of control"
- COMPOUND: "CN(C)c1ccc(/C=C2\\C=Cc3ccccc32)cc1"
  T/C: "90 % of control"
- COMPOUND: "S=C(N=Nc1ccccc1)NNc1ccccc1"
  T/C: "100 % of control"
- COMPOUND: "CCOC(=O)C1=C(C)NC(=O)NC1c1ccc(C)cc1 (stereo unspecified)"
  T/C: "100 % of control"

---

- Test system: P388 leukemia ip, CD2F1 mice, survival T/C
- EXPERIMENT DESCRIPTION: NCI In Vivo Anticancer Drug Screen. Data for tumor model P388 Leukemia (intraperitoneal) in CD2F1 (CDF1) mice
- COND: endpoint: median survival time; dose: 50.0 mg/kg/injection; schedule: Q01DX005 (ip); vehicle: saline with Tween-80; higher = longer survival
Toxic doses and inconclusive results are not listed. Peptide text beside a SMILES is read from it. * marks the point of attachment. Cbz = O=C(OCc1ccccc1)*

- MOLECULE: "N#CCS(=O)CC(N)C(=O)O (centres undefined)"
  T/C: "102 % of control"
- MOLECULE: "S=C1NCCNC(=S)SSSS1"
  T/C: "107 % of control"
- MOLECULE: "Nc1c(C(=O)NCCc2ccccc2)c2nc3c(C(=O)NCCc4ccccc4)ccc(Br)c3oc-2c(Br)c1=O"
  T/C: "89 % of control"
- MOLECULE: "COC(=O)N1C=Cc2ccccc2C1(C#N)C(=S)SC (centres undefined)"
  T/C: "102 % of control"
- MOLECULE: "C#CC(OS(=O)(=O)C(F)(F)F)=C(C)C"
  T/C: "99 % of control"
- MOLECULE: "CCCCCCCCCCCN(C)C"
  T/C: "105 % of control"
- MOLECULE: "CC1(C)S[C@@H]2C(Cl)=C(Cl)C(=O)N2[C@H]1C(=O)O"
  T/C: "91 % of control"
- MOLECULE: "CCCC1(CC)CNC(=O)NC1=O (centres undefined)"
  T/C: "100 % of control"
- MOLECULE: "C[Si](C)(C)CSCCO"
  T/C: "106 % of control"
- MOLECULE: "COc1ccc(CCNC(=O)C2CCCOC2C(Cl)Cl)cc1OC (centres undefined)"
  T/C: "97 % of control"
- MOLECULE: "Cc1ncc(C(N)=O)c2c1OC(C)(C)OC2"
  T/C: "100 % of control"
- MOLECULE: "CCC(C)(C)NCCCCCNc1cc(OC)cc2cccnc12"
  T/C: "95 % of control"
- MOLECULE: "CSCCC(NC(=O)C(Cc1ccccc1)NC(=O)OCc1ccccc1)C(=O)O (stereo not drawn) (Cbz-Phe-Met-OH; configuration not given here)"
  T/C: "104 % of control"
- MOLECULE: "Cc1cc(C)cc(C(=O)NC(c2ccncc2)C(NC(=O)c2cc(C)cc(C)c2)c2ccncc2)c1 (centres undefined)"
  T/C: "90 % of control"
- MOLECULE: "COc1ccc(/C=C/C(C)=N/NC(N)=O)cc1"
  T/C: "101 % of control"
- MOLECULE: "c1ccc(Nc2nnc3nc(-c4ccccc4)c(-c4ccccc4)nn23)cc1"
  T/C: "91 % of control"
- MOLECULE: "Cc1cc(C)n(-c2ccc(S(=O)(=O)N3CCC(=O)N(Cc4ccccc4)C3=S)cc2)n1"
  T/C: "100 % of control"
- MOLECULE: "CCN(CC)CCOC(=O)C(C1CCCCC1)C1(O)CCCCCC1 (centres undefined)"
  T/C: "104 % of control"
- MOLECULE: "N#Cc1c(C(=O)NN)c2c(-c3ccc4ccccc4c3)n[nH]c(=O)c2[nH]c1=O"
  T/C: "91 % of control"
- MOLECULE: "OCCN(CCO)C(Cc1ccccc1)c1ccccc1 (centres undefined)"
  T/C: "110 % of control"
- MOLECULE: "O=[N+]([O-])CC(c1ccccc1)C(c1ccccc1)[N+](=O)[O-] (centres undefined)"
  T/C: "90 % of control"
- MOLECULE: "CCCCCCCN(CCCCCCC)CCCC(O)c1cccc2ccccc12 (centres undefined)"
  T/C: "103 % of control"
- MOLECULE: "CC(=O)/C(N=Nc1ccc(F)cc1F)=C(\\C)O"
  T/C: "103 % of control"
- MOLECULE: "CCCCCC(=O)C(CCCC)(c1nc2n(c1O)C(=N)N=N2)c1nc2n(c1O)C(=N)N=N2 (centres undefined)"
  T/C: "107 % of control"
- MOLECULE: "[N-]=[N+]=CC(=O)C1OC12C1CC3CC(C1)CC2C3 (centres undefined)"
  T/C: "105 % of control"
- MOLECULE: "CCCCOC(=O)NC(=O)c1cc2cc(Cl)cc(Cl)c2oc1=O"
  T/C: "90 % of control"
- MOLECULE: "CCOC(=Nc1ccc([N+](=O)[O-])cc1)SC(c1ccccc1)(c1ccccc1)c1ccccc1"
  T/C: "103 % of control"
- MOLECULE: "O=c1c2[nH]c3ccccc3sc=2c(=O)n1-c1cccc(C(F)(F)F)c1"
  T/C: "104 % of control"
- MOLECULE: "C=COC(=O)C(Cc1cccs1)NC(=O)OCc1ccccc1 (centres undefined)"
  T/C: "101 % of control"
